hemolysis at 1 h, 25 µM values, listed per item
- PROTOCOL_SUMMARY: Hemolytic activity in male Sprague-Dawley rat erythrocytes at 25 uM incubated for 1 hr by absorbance based method relative to control
- Type: toxicity, cell-based, Erythrocyte
- EXPERIMENTAL_PARAMETERS: read-out: Activity
Non-standard residues stand in square brackets, D forms with d. Residues, ends and D or L forms follow the SMILES beside them. Gly(N(CH2)2(3-indolyl)) = O=C(O)CNCCc1c[nH]c2ccccc12; Nspe = C[C@H](NCC(=O)O)c1ccccc1; Nphe = O=C(O)CNCc1ccccc1; Nlys = NCCCCNCC(=O)O
OBSERVATION_TYPE: hemolysis at 1 h, 25 µM (%)

{"columns": ["COMPOUND", "REPORTED_MEASUREMENT"],
 "data": [
  ["C[C@@H](c1ccccc1)N(CC(N)=O)C(=O)CN(CCCCN)C(=O)CN(C(=O)CN(C(=O)CN(CCCCN)C(=O)CN(C(=O)CN(C(=O)CN(CCCCN)C(=O)CN(C(=O)CN(C(=O)CN(CCCCN)C(=O)[C@H](Cc1c[nH]cn1)NC(=O)CNC(=O)CN)[C@@H](C)c1ccccc1)[C@@H](C)c1ccccc1)[C@@H](C)c1ccccc1)[C@@H](C)c1ccccc1)[C@@H](C)c1ccccc1)[C@@H](C)c1ccccc1 (H-GGH[Nlys][Nspe][Nspe][Nlys][Nspe][Nspe][Nlys][Nspe][Nspe][Nlys][Nspe]-NH2)", 7.95],
  ["C[C@@H](c1ccccc1)N(CC(N)=O)C(=O)CN(CCCCN)C(=O)CN(C(=O)CN(C(=O)CN(CCCCN)C(=O)CN(C(=O)CN(C(=O)CN(CCCCN)C(=O)CN(C(=O)CN(C(=O)CNCCCCN)[C@@H](C)c1ccccc1)[C@@H](C)c1ccccc1)[C@@H](C)c1ccccc1)[C@@H](C)c1ccccc1)[C@@H](C)c1ccccc1)[C@@H](C)c1ccccc1 (H-[Nlys][Nspe][Nspe][Nlys][Nspe][Nspe][Nlys][Nspe][Nspe][Nlys][Nspe]-NH2)", 40.3],
  ["C[C@@H](c1ccccc1)N(CC(N)=O)C(=O)CN(C(=O)CN(CCCCN)C(=O)CN(C(=O)CN(C(=O)CN(CCCCN)C(=O)CN(C(=O)CN(C(=O)CN(CCCCN)C(=O)CN(CCc1c[nH]c2ccccc12)C(=O)CN(CCc1c[nH]c2ccccc12)C(=O)CNCCCCN)[C@@H](C)c1ccccc1)[C@@H](C)c1ccccc1)[C@@H](C)c1ccccc1)[C@@H](C)c1ccccc1)[C@@H](C)c1ccccc1", 33],
  ["C[C@@H](c1ccccc1)N(CC(=O)N(CCCCN)CC(=O)N(CC(=O)N(CC(=O)N(CCCCN)CC(=O)N(CC(=O)N(CC(N)=O)Cc1ccccc1)Cc1ccccc1)[C@@H](C)c1ccccc1)[C@@H](C)c1ccccc1)C(=O)CN(C(=O)CN(CCCCN)C(=O)CN(Cc1ccccc1)C(=O)CN(Cc1ccccc1)C(=O)CNCCCCN)[C@@H](C)c1ccccc1 (H-[Nlys][Nphe][Nphe][Nlys][Nspe][Nspe][Nlys][Nspe][Nspe][Nlys][Nphe][Nphe]-NH2)", 12.5],
  ["C[C@@H](c1ccccc1)N(CC(=O)N(CCCCN)CC(=O)N(CCc1c[nH]c2ccccc12)CC(=O)N(CCc1c[nH]c2ccccc12)CC(N)=O)C(=O)CN(CCCCN)C(=O)CN(CCCCN)C(=O)CN(C(=O)CN(C(=O)CN(CCCCN)C(=O)CN(C(=O)CN(C(=O)CNCCCCN)[C@@H](C)c1ccccc1)[C@@H](C)c1ccccc1)[C@@H](C)c1ccccc1)[C@@H](C)c1ccccc1 (H-[Nlys][Nspe][Nspe][Nlys][Nspe][Nspe][Nlys][Nlys][Nspe][Nlys][Gly(N(CH2)2(3-indolyl))][Gly(N(CH2)2(3-indolyl))]-NH2)", 2.72]
]}

Reference source: ChEMBL document CHEMBL5584354
